- Test Description: pharmacokinetic study (LC-MS/MS)
- Format: in vivo, Sprague-Dawley rats
- Test Settings: Sprague-Dawley, rat, in vivo; rats, after oral administration; read-out: elimination half-life
- Text: The fully-validated LC-MS/MS method was well used for the pharmacokinetic (PK) studies of Crystalline Form A* of Compound 1 Sesqui-Maleate in Sprague-Dawley rats and beagle dogs following single- and multiple-dose administrations.
Where a name gives a salt, the structure may show the parent alone.
Observed Property: half-life

Using known records, supply half-life for O=C1CCc2c(Oc3ccc4c(c3)[C@@H]3[C@H](O4)[C@H]3c3nc4ccc(C(F)(F)F)cc4[nH]3)ccnc2N1 [sesqui-maleate salt]
4.4 to 9.4 h

---

- Tested on: EGFR phosphorylation in A431 cells
- Test Description: cellular phospho-EGFR TR-FRET assay
- Format: cell-based
- Test Settings: Homo sapiens, A-431; EGFR overexpressing A431 cells, 1 h treatment
Structures can show the parent of a compound that is named as a salt.
Observed Property: IC50 (nM)
Write down the numeric answer in nM and omit the unit.

Give IC50 for O=C1CCc2c(Oc3ccc4c(c3)[C@@H]3[C@H](O4)[C@H]3c3nc4ccc(C(F)(F)F)cc4[nH]3)ccnc2N1 [sesqui-maleate salt]
385

---

- Tested Target: TEC (Homo sapiens)
- Sequence (P42680 whole entry): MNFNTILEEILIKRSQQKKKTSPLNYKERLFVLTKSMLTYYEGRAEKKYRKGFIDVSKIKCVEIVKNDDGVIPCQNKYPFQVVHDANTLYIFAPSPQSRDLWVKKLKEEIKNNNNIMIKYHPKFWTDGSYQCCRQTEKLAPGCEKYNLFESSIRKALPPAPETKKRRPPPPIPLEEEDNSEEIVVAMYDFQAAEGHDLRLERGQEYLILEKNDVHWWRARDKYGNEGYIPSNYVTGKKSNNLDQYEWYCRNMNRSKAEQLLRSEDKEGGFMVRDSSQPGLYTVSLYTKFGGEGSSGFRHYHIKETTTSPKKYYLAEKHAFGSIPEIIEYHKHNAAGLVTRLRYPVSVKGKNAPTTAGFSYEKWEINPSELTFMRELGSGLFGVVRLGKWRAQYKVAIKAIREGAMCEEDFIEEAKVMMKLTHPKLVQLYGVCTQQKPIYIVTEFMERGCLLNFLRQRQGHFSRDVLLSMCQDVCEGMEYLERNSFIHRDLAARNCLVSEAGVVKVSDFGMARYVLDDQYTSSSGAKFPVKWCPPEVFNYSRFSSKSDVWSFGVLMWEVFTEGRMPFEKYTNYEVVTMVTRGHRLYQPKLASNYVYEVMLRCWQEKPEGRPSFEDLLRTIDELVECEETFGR
pIC50: −log10 of the molar value. Counter-ions that a name gives are not always drawn.
Observed Property: pIC50

Give pIC50; test system TEC (Homo sapiens); compound O=C1CCc2c(Oc3ccc4c(c3)[C@@H]3[C@H](O4)[C@H]3c3nc4ccc(C(F)(F)F)cc4[nH]3)ccnc2N1 [sesqui-maleate salt]
< 5.00

---

- Tested Target: UniProtKB P35968
- Sequence (P35968 20-1356): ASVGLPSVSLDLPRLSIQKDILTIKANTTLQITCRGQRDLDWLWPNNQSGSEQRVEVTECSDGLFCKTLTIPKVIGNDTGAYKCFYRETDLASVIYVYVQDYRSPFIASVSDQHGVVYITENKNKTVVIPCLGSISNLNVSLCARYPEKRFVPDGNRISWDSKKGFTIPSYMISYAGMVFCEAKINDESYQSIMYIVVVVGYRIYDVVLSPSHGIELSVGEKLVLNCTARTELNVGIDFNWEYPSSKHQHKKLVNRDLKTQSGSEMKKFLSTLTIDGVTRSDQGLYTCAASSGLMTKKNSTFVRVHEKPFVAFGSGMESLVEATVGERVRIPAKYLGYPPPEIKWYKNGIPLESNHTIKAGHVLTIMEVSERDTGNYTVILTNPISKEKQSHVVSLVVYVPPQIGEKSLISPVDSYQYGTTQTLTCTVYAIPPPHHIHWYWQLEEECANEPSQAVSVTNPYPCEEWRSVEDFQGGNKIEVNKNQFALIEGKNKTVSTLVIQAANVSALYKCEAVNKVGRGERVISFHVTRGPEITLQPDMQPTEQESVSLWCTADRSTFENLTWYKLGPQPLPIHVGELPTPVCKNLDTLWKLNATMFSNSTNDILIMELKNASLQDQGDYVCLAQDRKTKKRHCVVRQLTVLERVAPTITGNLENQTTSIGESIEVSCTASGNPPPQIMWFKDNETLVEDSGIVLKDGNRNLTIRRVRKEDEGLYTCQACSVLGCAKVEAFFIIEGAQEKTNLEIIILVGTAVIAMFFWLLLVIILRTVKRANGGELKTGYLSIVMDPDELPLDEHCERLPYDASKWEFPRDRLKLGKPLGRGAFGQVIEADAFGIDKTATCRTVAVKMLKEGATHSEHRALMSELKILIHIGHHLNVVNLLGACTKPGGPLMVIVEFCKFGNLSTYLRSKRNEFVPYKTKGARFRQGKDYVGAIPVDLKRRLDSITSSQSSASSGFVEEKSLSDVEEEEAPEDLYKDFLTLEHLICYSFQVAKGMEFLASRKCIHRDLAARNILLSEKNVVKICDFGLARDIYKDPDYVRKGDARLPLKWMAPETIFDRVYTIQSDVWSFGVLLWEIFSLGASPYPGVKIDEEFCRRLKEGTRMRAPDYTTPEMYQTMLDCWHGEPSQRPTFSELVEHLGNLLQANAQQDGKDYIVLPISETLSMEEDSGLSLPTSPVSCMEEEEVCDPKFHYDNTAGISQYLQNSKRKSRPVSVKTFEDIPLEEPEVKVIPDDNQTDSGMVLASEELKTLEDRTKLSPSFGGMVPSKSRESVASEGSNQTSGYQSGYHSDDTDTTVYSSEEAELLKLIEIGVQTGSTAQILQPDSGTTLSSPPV
Counter-ions that a name gives are not always drawn.
Observed Property: IC50 (nM)
// note: answer is a bare numeric in nM

Quote UniProtKB P35968 IC50 for entry O=C1CCc2c(Oc3ccc4c(c3)[C@@H]3[C@H](O4)[C@H]3c3nc4ccc(C(F)(F)F)cc4[nH]3)ccnc2N1 [sesqui-maleate salt] .
22

---

- Test Description: pharmacokinetic comparison of sesqui-maleate and free base, oral
- Type: in vivo, Beagle dogs
- Test Settings: both sexes, beagle, dog, plasma, po, 1.5 mg/kg, dogs, oral dose 1.5 mg/kg; read-out: Cmax
Structures can show the parent of a compound that is named as a salt.
Observed Property: Cmax (ng/mL)
Response body: numeric value in ng/mL, unit text excluded.

Give the reported value of Cmax for this record: O=C1CCc2c(Oc3ccc4c(c3)[C@@H]3[C@H](O4)[C@H]3c3nc4ccc(C(F)(F)F)cc4[nH]3)ccnc2N1 [sesqui-maleate salt]
861

---

Target sequence: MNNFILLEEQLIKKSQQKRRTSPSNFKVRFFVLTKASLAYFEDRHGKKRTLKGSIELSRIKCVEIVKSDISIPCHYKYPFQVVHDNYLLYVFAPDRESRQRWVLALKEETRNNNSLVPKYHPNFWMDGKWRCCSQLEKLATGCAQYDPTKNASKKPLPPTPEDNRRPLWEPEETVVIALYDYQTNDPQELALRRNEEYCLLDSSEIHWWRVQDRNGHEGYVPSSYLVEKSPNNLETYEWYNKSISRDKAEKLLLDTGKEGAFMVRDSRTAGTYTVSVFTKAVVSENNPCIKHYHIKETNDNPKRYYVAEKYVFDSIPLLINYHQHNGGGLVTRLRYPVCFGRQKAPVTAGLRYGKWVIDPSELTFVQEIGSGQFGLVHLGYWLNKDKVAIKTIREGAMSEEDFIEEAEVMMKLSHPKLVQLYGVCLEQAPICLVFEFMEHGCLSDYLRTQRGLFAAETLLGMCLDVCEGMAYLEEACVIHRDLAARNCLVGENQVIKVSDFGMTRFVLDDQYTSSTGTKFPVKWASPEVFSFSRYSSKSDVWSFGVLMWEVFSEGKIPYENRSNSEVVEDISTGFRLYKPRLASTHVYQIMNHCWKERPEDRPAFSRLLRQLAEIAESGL
pIC50: −log10 of the molar value. Where a name gives a salt, the structure may show the parent alone.
Observed Property: pIC50

For the compound O=C1CCc2c(Oc3ccc4c(c3)[C@@H]3[C@H](O4)[C@H]3c3nc4ccc(C(F)(F)F)cc4[nH]3)ccnc2N1 [sesqui-maleate salt] , give its measured pIC50 value.
< 5.00

---

- Tested Target: FLT3 (Homo sapiens)
- Sequence (P36888 27-993): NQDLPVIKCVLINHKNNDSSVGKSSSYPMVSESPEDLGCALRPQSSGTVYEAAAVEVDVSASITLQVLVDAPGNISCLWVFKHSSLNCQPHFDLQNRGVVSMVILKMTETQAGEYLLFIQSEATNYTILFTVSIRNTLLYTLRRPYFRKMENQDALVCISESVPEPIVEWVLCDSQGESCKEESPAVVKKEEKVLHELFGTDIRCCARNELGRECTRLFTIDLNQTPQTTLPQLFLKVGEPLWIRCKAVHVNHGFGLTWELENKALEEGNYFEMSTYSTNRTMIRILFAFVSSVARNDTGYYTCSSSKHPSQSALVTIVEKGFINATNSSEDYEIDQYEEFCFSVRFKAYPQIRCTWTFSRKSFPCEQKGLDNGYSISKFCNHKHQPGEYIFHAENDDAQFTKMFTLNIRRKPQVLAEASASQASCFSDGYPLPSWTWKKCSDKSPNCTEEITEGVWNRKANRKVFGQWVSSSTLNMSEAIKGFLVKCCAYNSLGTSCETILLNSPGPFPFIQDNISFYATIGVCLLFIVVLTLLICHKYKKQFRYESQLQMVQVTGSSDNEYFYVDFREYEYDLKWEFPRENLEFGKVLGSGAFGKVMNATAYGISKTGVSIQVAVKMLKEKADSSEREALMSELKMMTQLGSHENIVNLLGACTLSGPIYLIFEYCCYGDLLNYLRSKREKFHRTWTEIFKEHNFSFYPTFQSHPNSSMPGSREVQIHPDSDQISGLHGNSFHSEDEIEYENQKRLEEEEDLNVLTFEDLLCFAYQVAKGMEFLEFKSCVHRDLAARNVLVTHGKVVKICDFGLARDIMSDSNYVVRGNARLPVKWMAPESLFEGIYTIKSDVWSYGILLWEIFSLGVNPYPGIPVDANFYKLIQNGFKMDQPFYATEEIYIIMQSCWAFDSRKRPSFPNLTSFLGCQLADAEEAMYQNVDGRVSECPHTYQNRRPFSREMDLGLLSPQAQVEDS
Where a name gives a salt, the structure may show the parent alone.
Observed Property: pIC50
The meaning of pIC50 here: minus log10 of the concentration in molar units.

Return value of pIC50 for input O=C1CCc2c(Oc3ccc4c(c3)[C@@H]3[C@H](O4)[C@H]3c3nc4ccc(C(F)(F)F)cc4[nH]3)ccnc2N1 [sesqui-maleate salt] , no commentary.
7.60

---

- Test Description: pharmacokinetic comparison of sesqui-maleate and free base, oral
- Assay type: in vivo, Beagle dogs
- Test Settings: both sexes, beagle, dog, plasma, po, 4.5 mg/kg, dogs, oral dose 4.5 mg/kg; read-out: Cmax
Counter-ions that a name gives are not always drawn.
Observed Property: Cmax (ng/mL)
Note: unit ng/mL is implicit; provide only the numeric part.

Please give measured Cmax of the following entry: O=C1CCc2c(Oc3ccc4c(c3)[C@@H]3[C@H](O4)[C@H]3c3nc4ccc(C(F)(F)F)cc4[nH]3)ccnc2N1 [sesqui-maleate salt]
2880

---

- Tested Target: wild-type Braf (Homo sapiens, UniProt P15056)
- Sequence (P15056 whole entry): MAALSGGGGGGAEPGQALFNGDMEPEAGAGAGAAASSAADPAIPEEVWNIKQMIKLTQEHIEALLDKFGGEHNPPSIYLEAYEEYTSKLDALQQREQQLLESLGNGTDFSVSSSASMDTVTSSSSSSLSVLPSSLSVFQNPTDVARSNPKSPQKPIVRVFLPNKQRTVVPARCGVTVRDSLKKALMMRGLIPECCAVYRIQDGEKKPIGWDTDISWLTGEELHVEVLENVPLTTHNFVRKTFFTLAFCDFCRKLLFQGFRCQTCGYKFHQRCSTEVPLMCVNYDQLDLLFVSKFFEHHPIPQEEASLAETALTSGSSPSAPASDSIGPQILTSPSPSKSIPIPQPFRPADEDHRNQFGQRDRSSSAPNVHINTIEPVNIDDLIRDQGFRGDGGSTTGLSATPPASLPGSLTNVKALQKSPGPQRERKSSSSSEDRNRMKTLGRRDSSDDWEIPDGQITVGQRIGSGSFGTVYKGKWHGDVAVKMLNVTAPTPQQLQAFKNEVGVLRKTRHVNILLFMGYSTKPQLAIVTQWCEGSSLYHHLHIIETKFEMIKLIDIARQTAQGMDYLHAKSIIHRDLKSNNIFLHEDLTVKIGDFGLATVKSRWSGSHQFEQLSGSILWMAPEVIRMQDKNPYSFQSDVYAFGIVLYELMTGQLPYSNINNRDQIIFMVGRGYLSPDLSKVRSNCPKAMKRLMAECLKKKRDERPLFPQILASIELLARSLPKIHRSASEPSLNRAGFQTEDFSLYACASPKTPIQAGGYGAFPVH
Structures can show the parent of a compound that is named as a salt.
Observed Property: IC50 (nM)
# output: bare number, implied unit nM

Check the records and state IC50 for O=C1CCc2c(Oc3ccc4c(c3)[C@@H]3[C@H](O4)[C@H]3c3nc4ccc(C(F)(F)F)cc4[nH]3)ccnc2N1 [sesqui-maleate salt]
69

---

- Tested Target: C-Raf (Y340D/Y341D) (Homo sapiens, UniProt P04049, Y340D/Y341D)
- Sequence (P04049 whole entry Y340D/Y341D): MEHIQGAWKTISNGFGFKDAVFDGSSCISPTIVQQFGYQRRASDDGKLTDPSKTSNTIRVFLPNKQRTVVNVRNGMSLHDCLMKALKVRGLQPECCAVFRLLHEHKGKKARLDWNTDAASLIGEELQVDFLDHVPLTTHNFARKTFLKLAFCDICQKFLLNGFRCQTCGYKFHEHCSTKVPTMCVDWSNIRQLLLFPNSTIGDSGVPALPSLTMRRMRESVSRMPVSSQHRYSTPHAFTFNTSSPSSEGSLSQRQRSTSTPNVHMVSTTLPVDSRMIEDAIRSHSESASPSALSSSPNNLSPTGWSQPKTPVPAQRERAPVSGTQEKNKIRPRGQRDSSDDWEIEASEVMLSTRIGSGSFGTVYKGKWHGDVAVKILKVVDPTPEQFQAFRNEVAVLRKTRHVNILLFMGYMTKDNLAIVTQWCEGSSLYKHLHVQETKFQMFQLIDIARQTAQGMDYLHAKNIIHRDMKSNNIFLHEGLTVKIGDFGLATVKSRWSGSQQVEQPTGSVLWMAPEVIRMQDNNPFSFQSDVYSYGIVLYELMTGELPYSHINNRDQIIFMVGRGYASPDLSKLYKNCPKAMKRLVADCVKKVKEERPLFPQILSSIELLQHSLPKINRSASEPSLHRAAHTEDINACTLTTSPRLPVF
- Test Description: Raf kinase enzymatic assay (HTRF)
- Test Settings: CRAF Y340, 341D; ATP at KM
Structures can show the parent of a compound that is named as a salt.
Observed Property: IC50 (nM)
Reply with just the number (in nM).

Please report IC50 for the following molecule: O=C1CCc2c(Oc3ccc4c(c3)[C@@H]3[C@H](O4)[C@H]3c3nc4ccc(C(F)(F)F)cc4[nH]3)ccnc2N1 [sesqui-maleate salt]
3.5

---

- Test Description: pharmacokinetic study (LC-MS/MS)
- Format: in vivo, beagle dogs
- Test Settings: beagle, dog, in vivo; dogs, after oral administration; read-out: elimination half-life
Structures can show the parent of a compound that is named as a salt.
Observed Property: half-life

Look up and state reported half-life for O=C1CCc2c(Oc3ccc4c(c3)[C@@H]3[C@H](O4)[C@H]3c3nc4ccc(C(F)(F)F)cc4[nH]3)ccnc2N1 [sesqui-maleate salt]
3.3 to 4.9 h

---

- Test system: ERK phosphorylation in A375 cells
- Test Description: cellular phospho-ERK TR-FRET assay
- Type: cell-based
- Test Settings: Homo sapiens, A-375; B-RAF V600E mutant melanoma A375 cells, 1 h treatment
Counter-ions that a name gives are not always drawn.
Observed Property: pIC50
pIC50 field: float, defined as -log10 of concentration (mol/L).

Using known records, supply pIC50 for O=C1CCc2c(Oc3ccc4c(c3)[C@@H]3[C@H](O4)[C@H]3c3nc4ccc(C(F)(F)F)cc4[nH]3)ccnc2N1 [sesqui-maleate salt]
7.49
